system: MDA-MB-468 breast; assay: NCI tumour cell line growth inhibition, 48 h; in the data active = GI50 below about 0.43 µM; inactive = the rest
Outcomes: Y = active, N = inactive

- molecule: "CN1CC[C@@H](c2c(O)cc(O)c3c(=O)cc(-c4ccc(C(F)(F)F)cc4Cl)oc23)[C@@H]1CO"
  category label: "N"
- molecule: "CCc1ccc(/C=C/c2ccc(O)c3ncccc23)[n+](C)c1"
  category label: "N"
- molecule: "CN(C)CCC(=O)C(=Cc1ccc(O)cc1)C(=O)CCN(C)C"
  category label: "N"
- molecule: "C#Cc1nc(Nc2cc(C)[nH]n2)c2ccccc2n1"
  category label: "Y"
- molecule: "COc1ccc(C(O)(CCC(C)C)C(CN2CCOCC2)c2ccc(Cl)cc2)cc1 (stereo not drawn)"
  category label: "N"
- molecule: "CC(C)=CCc1cc(O)cc2c1OC(C=C(C)C)C1=C2C(=O)C2=C(C1=O)S(=O)(=O)CCN2 (stereo not drawn)"
  category label: "N"
- molecule: "CN(C)c1ccc(N=Nc2ccccn2)c(O)c1"
  category label: "Y"
- molecule: "Cc1ccc2c(C3C(C#N)=C(N)Oc4cc5ccccc5cc43)cc(=O)oc2c1 (stereo not drawn)"
  category label: "N"
